- Test system: CCRF-CEM leukemia
- procedure.summary: NCI tumour cell line growth inhibition, 48 h
GI50: recorded values

molecule	GI50
O=C(O)CN1CCN(CC(=O)O)CC(=O)[O][Hg][O]C(=O)C1	3.96 µM

Which GI50 is reported for this molecule? CCCN(CCS(C)(=O)=O)Cc1ccc(-c2ccc3ncnc(Nc4ccc(OCc5cccc(F)c5)c(Cl)c4)c3c2)o1
7.39 µM

Same read-out for Fc1ccc(/C=N/n2c(-c3ccc(F)c(Cl)c3)nn(CNc3ccccc3C(F)(F)F)c2=S)cc1 ?
51.6 µM

====

TGI: recorded values
- System: XF 498 CNS
- procedure.summary: NCI tumour cell line growth inhibition, 48 h

Worked cases, answers included:
compound	TGI
Clc1ccc(Nc2nc3ccccc3nc2-c2cccs2)cc1Cl	> 100 µM
CC#CCC1CCC(OCC)=CC1=O (stereo not drawn)	> 100 µM

Could you now look at the following compound, please?
Which TGI is reported for this compound? O=C1OC(Cc2ccccc2)(N2CCCC2=O)C1c1ccccc1 (stereo not drawn)
88.5 µM

====

- System: CAKI-1 renal
- procedure.summary: NCI tumour cell line growth inhibition, 48 h; in the data active = GI50 below about 0.43 µM; inactive = the rest
Output constraint: value belongs to 1.0 for active, 0.0 for inactive

molecule	qualitative.label
CCCN(CCS(C)(=O)=O)Cc1ccc(-c2ccc3ncnc(Nc4ccc(OCc5cccc(F)c5)c(Cl)c4)c3c2)o1	0.0
CC(C)NCCCn1c(Sc2cc3c(cc2I)OCO3)nc2c(N)ncnc21	0.0
O=C1OCC2=C1C(c1ccc(Cl)c(Cl)c1)c1cc3c(cc1N2CCO)OCCO3 (stereo not drawn)	1.0
O=S(=O)(c1ccc(Cl)cc1)C(Cl)(Cl)Cl	1.0
COc1ccc2cc1Oc1ccc(cc1)C[C@H]1c3c(cc4c(c3Oc3cc5c(cc3OC)CCN(C)[C@@H]5C2)OCO4)CCN1C	0.0
C/C(=C\c1ccc2ccccc2c1)[N+](=O)[O-]	0.0
N#Cc1c(N2CCOCC2)nc(=S)[nH]c1-c1ccco1	0.0

So what was the verdict on O=S(=O)(Nc1cc(Sc2cccc3cccnc23)c(O)c2ccccc12)c1ccc(F)cc1 in this test?
0.0

====

- System: A498 renal
- procedure.summary: NCI tumour cell line growth inhibition, 48 h
TGI: recorded values

Worked cases, answers included:
compound	assay.system	reported.result
CN[C@@H](C)C(=O)N[C@H](C(=O)N1CCC[C@H]1C(=O)Nc1sc(-c2ncco2)nc1-c1ccccc1)C1CCCCC1	A498 renal	> 88 µM
c1ccc2c(c1)C1CCCCCC21N1CCOCC1 (stereo not drawn)	A498 renal	> 100 µM

Could you now look at the following compound, please?
Which TGI is reported for this compound? COC1=CC(=O)C2=C(C1=O)[C@H]1CC[C@]3(C)[C@@H](O)CC[C@H]3[C@@H]1CC2
> 100 µM

====

TGI: recorded values
- Tested on: SF-295 CNS
- procedure.summary: NCI tumour cell line growth inhibition, 48 h

Worked cases, answers included:
compound	assay.system	TGI
O=C(CCCN1CCC2(CC1)CC(c1ccccc1)OC2=O)c1ccc(F)cc1 (stereo not drawn)	SF-295 CNS	60.9 µM
O=c1[nH]c(=O)n(C2CC(O)C(COP(=O)(OCc3ccc([N+](=O)[O-])o3)N(CCCCCl)CC(O)CO)O2)cc1F (stereo not drawn)	SF-295 CNS	> 25.1 µM
CN=c1ccc2nc3ccc(N)cc3sc-2c1	SF-295 CNS	3.79 µM
COc1cccc(NC(=O)CSc2nnc(-c3ccc(NC(C)=O)cc3)o2)c1	SF-295 CNS	> 100 µM
CCN(CC)CC1CCCCN1CC(=O)N1c2ccccc2C(=O)Nc2cccnc21 (stereo not drawn)	SF-295 CNS	> 100 µM

Which TGI is reported for this compound? CC(C)(C)c1cc2c(OC/C=C/c3ccccc3)c(c1)Cc1cc(C(C#N)(OC/C=C/c3ccccc3)OC/C=C/c3ccccc3)cc(c1OC/C=C\c1ccccc1)Cc1cc(C(C)(C)C)cc(c1OC/C=C/c1ccccc1)Cc1cc(C(C#N)(OC/C=C\c3ccccc3)OC/C=C/c3ccccc3)cc(c1OC/C=C\c1ccccc1)C2 (stereo not drawn)
> 100 µM

Same read-out for O=C(NNCC(O)COc1ccccc1)c1ccccc1 (stereo not drawn) ?
> 100 µM

Same read-out for O=C1NC(=O)C2C(=O)NC(=O)C1C2c1c(Cl)cccc1Cl (stereo not drawn) ?
> 100 µM

Same read-out for O=C(NC1CCCCC1)NS(=O)(=O)c1ccc2c(c1)CCC2 ?
> 100 µM

Same read-out for c1ccc2c(c1)C1CCCCCC21N1CCOCC1 (stereo not drawn) ?
> 100 µM
